- system_name: T1, monomeric human sBCMA (Homo sapiens, UniProt Q02223)
- T1 construct: is comprised of the entire extracellular domain of the molecule; purchased GenScript
- T1 sequence (Q02223 1-54 limits assumed): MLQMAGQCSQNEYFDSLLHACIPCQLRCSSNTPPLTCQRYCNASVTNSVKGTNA
- experiment_notes: Kinetics/affinity measurement by SPR (BioRad ProteOn XPR36), antibody captured by anti-Fc, sBCMA flowed over
- Format: binding
- experimental_conditions: sBCMA 100-6.25 nM
endpoint_label: Koff

molecule="I09: lead optimized clone of 15B2GL; VH SEQ ID NO: 11, VL SEQ ID NO: 12 (antibody, V domains shown) VH: EVQLVESGGGLVKPGGSLRLSCAASGFTFSSYSMNWVRQAPGKGLEWVSSISGSSNYIYYADSVKGRFTISRDNAKNSLYLQMNSLRAEDTAVYYCARGGNYFVEYFQQWGQGTLVTVSS VL: EIVLTQSPGTLSLSPGERATLSCRASQYISSNYLAWYQQKPGQAPRLLIYGASNRATGIPDRFSGSGSGTDFTLTISRLEPEDFAVYYCQQYSSDPITFGQGTKLEIK" endpoint_label=Koff result=5.99E−03
